The values you see were collected from ChEMBL document CHEMBL3407488.

# Tested on: Right cardiac atrium
# procedure.text: Negative chronotropic activity in guinea pig […] atrium assessed as decrease in atrial rate on spontaneous beating at 10^-4 M relative to control
# Assay type: functional, Cavia porcellus
# Design: scale not given: the % may be the effect or the level left
metric.name: Activity (%)

compound="CCOC1(c2ccc(Br)cc2)Sc2ccccc2-n2c1noc2=O (racemic)" result_number=7
compound="O=c1onc2n1-c1ccccc1SC2(OCC(F)(F)F)c1ccc(Br)cc1 (racemic)" result_number=7
compound="CCOC1(c2ccc(Br)cc2)SC=C(C)n2c1noc2=O (racemic)" result_number=5
compound=CC1=CS[C@@](OCC(F)(F)F)(c2ccc(Br)cc2)c2noc(=O)n21 result_number=16

###

pIC50 by entry:
# procedure.text: Antagonist activity at Cav1.2a in K+-depolarized guinea pig aortic strips assessed as inhibition of calcium-induced contraction
# Assay type: tissue-based
# measurement.conditions: Cavia porcellus, Aorta
pIC50: −log10 of the molar value.
metric.name: pIC50

compound="COc1ccc([C@@H]2Sc3ccccc3N(CCN(C)C)C(=O)[C@@H]2OC(C)=O)cc1 [DILTIAZEM]" result_number=5.59
compound="CCOC1(c2ccc(Br)cc2)Sc2ccccc2-n2c1noc2=O (racemic)" result_number=7.89

###

# System: Cav1.2b
# procedure.text: Antagonist activity at Cav1.2b in K+-depolarized guinea pig ileum longitudinal smooth muscle assessed as inhibition of calcium-induced contraction at 10^-6 M relative to control
# Format: tissue-based, Cavia porcellus
# measurement.conditions: read-out: Activity
metric.name: inhibition at 1 µM

structure=COc1ccc([C@@H]2Sc3ccccc3N(CCN(C)C)C(=O)[C@@H]2OC(C)=O)cc1 target_or_test_system=Cav1.2b result=98%

###

# System: Cav1.2b
# procedure.text: Antagonist activity at Cav1.2b in K+-depolarized guinea pig ileum longitudinal smooth muscle assessed as inhibition of calcium-induced contraction at 10^-4 M relative to control
# Assay type: tissue-based, Cavia porcellus
# measurement.conditions: read-out: Activity
metric.name: inhibition at 100 µM (%)

compound=O=c1onc2n1-c1ccccc1S[C@]2(OCC(F)(F)F)c1ccc(Br)cc1 result_number=54
compound="CCOC1(c2ccc(Br)cc2)SC=C(C)n2c1noc2=O (racemic)" result_number=3
compound="CC1=CSC(OCC(F)(F)F)(c2ccc(Br)cc2)c2noc(=O)n21 (racemic)" result_number=73
compound=O=c1onc2n1-c1ccccc1S[C@@]2(OCC(F)(F)F)c1ccc(Br)cc1 result_number=47
compound="O=c1onc2n1-c1ccccc1SC2(OCC(F)(F)F)c1ccc(Br)cc1 (racemic)" result_number=54
compound="CCOC1(c2ccc(Br)cc2)Sc2ccccc2-n2c1noc2=O (racemic)" result_number=87
compound=CC1=CS[C@@](OCC(F)(F)F)(c2ccc(Br)cc2)c2noc(=O)n21 result_number=85
compound=CC1=CS[C@](OCC(F)(F)F)(c2ccc(Br)cc2)c2noc(=O)n21 result_number=98

###

# System: Cav1.2b
# procedure.text: Antagonist activity at Cav1.2b in K+-depolarized guinea pig ileum longitudinal smooth muscle assessed as inhibition of calcium-induced contraction at 5 x 10^-5 M relative to control
# Format: tissue-based, Cavia porcellus
# measurement.conditions: read-out: Activity
metric.name: inhibition at 50 µM

structure=CCO[C@@]1(c2ccc(Br)cc2)Sc2ccccc2-n2c1noc2=O metric_name="inhibition at 50 µM" result=60%
